- Target or system: GABA-A receptor; anion channel (Bos taurus) (UniProt P10063+P08220+P20237+P08219+P10064+P22300)
- Experiment: Inhibition of specific [3H]flunitrazepam binding to Benzodiazepine receptor in bovine brain membranes at 34 uM
- Format: cell membranes
If the reported inhibition equals or exceeds 40%, assign y. If not, assign n.

Below are worked cases with known answers.
- Molecule: "Cc1nn(-c2ccc(Cl)cc2)c2c1c(O)nc1ccccc12"
  Discrete label: "y"
- Molecule: "Cc1nn(-c2ccc(Cl)cc2)c2c1c(N1CCN(C)CC1)nc1ccccc12"
  Discrete label: "n"
- Molecule: "Cc1nn(-c2ccccc2)c2c1c(O)nc1ccccc12"
  Discrete label: "y"
- Molecule: "Cc1cccc(-n2nc(C)c3c(O)nc4ccccc4c32)c1"
  Discrete label: "y"
- Molecule: "Cc1cccc(-n2nc(C)c3c(N4CCN(C)CC4)nc4ccccc4c32)c1"
  Discrete label: "y"

Has Cc1nn(-c2cccc(Cl)c2)c2c1c(N1CCOCC1)nc1ccccc12 a recorded inhibition greater than or equal to 40%?
n

Can you handle Cc1ccc(-n2nc(C)c3c(O)nc4ccccc4c32)cc1 next?
y

Can you handle COc1nc2ccccc2c2c1c(C)nn2-c1cccc(Cl)c1 next?
n

Can you handle Cc1nn(-c2cccc(Cl)c2)c2c1c(N1CCN(C)CC1)nc1ccccc12 next?
y

Can you handle Cc1nn(-c2cccc(Cl)c2)c2c1c(Cl)nc1ccccc12 next?
n

The values you see were collected from ChEMBL document CHEMBL1123403.
